# assay.info: inhibition of 3D7 malaria parasite growth – strain 3D7 (AID 2306);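 further: 0% = DMSO wells and 100% = chloroquine plus artemisinin control wells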
# details: P. falciparum 3D7 erythrocytic growth, LDH absorbance, 72 h; at 2 µM; stronger effect = higher value
Active and inactive are the calls of the source. How the calls were made is not given here.

| compound | growth inhibition |
| --- | --- |
| CNc1nc(NN=Cc2cc3c(cc2[N+](=O)[O-])OCO3)nc(Nc2cccc(C(F)(F)F)c2)n1 | 101% (active) |
| Cc1ccc(CNC(=O)[C@H](Cc2ccccc2)Nc2cc(C)nc(Nc3ccccc3)n2)cc1 | 101% (active) |
| O=c1cc(NCc2ccccc2NCc2ccc(Cl)c(Cl)c2)[nH]c2ccccc12 | 93% (active) |
| Cn1cncc1C(=O)Nc1cccc(-c2ccc(-c3nc4ccc(C(F)(F)F)cc4[nH]3)cc2)c1 | 97% (active) |
| NC1CCN(Cc2ccc(-c3ccc(-c4nc5ccc(F)cc5[nH]4)cc3)cc2)C1 (stereo not given) | 98% (active) |

====

Parameter inhibition: see the listing below.
# assay.info: human hepatoma cell viability loss – ATP luminescence, cytotoxicity control for P. falciparum antimalarial project, primary screen (AID 2303);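 further: 0% = DMSO wells and 100% = digitonin-killed cells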
# details: HepG2 viability, 24-48 h, at 10 µM, stronger effect = higher value
experimental.endpoint: inhibition (%)

| molecule | experimental.endpoint | observed.result |
| --- | --- | --- |
| Cc1cccc2[nH]c(C3CCN(CC4CCN(C(=O)/C=C/c5ccc(Cl)c(Cl)c5)CC4)CC3)nc12 | inhibition | 46 |
| CCOC(=O)CCCCCNC[C@H](O)c1ccccc1 | inhibition | 2 |
| CCc1ccc2c(c1O)CCN(C)C2Cc1ccccc1Cl (centres undefined) | inhibition | 13 |
| COc1cccc(OC(C)(C)c2nc(N[C@@H](C)c3ccccc3)c3cn[nH]c3n2)c1 | inhibition | 44 |
| Cc1ccccc1C(=O)NC(NC(=S)Nc1ccc([N+](=O)[O-])cc1)C(Cl)(Cl)Cl (centres undefined) | inhibition | -7 |
| CN(CCN1CCCC1)c1nc2ccc(-n3cnc4cc(-c5ccc(Cl)cc5)sc4c3=O)cc2[nH]1 | inhibition | 76 |
| COc1ccc(NC(=O)CCNc2cc(C)nc(Nc3ccccc3)n2)cc1 | inhibition | -9 |
| O=c1cc(NCCCNCc2cc(C(F)(F)F)ccc2Cl)[nH]c2ccccc12 | inhibition | 25 |
| COc1cccc(CNC[C@@H](O)[C@H](Cc2ccccc2)NC(=O)c2cc(OC(C)C)cc(N3CCCCS3(=O)=O)c2)c1 | inhibition | 8 |
| CN1CCC[C@H]1COc1ccc(CN2CC[C@H](NC(=O)c3ccc(Cl)c(Cl)c3)C2)cc1Cl | inhibition | 53 |
| CN(CCC1CCN(C(=O)/C=C/c2ccc(Cl)c(Cl)c2)CC1)C1CCC(c2c[nH]c3ccccc23)CC1 (centres undefined) | inhibition | 57 |
| COc1nc2c(CCN3CC[C@H](NCc4cc(C#N)c5c(c4)CCO5)[C@H](O)C3)ccnc2cc1F | inhibition | 31 |
| CCCC[C@H](NC(=O)OC(C)(C)C)C(=O)Nc1ccc(Cc2ccc(NC(=O)[C@H](CCCC)NC(=O)OC(C)(C)C)cc2)cc1 | inhibition | 5 |
| COc1ccc2ncc(F)c(CCN3CCC4(CC3)COC(c3cc5c(cn3)OCCO5)=N4)c2n1 | inhibition | 79 |

====

# assay.info: human hepatoma cell viability loss – ATP luminescence, cytotoxicity control for P. falciparum antimalarial project, primary screen (AID 2303);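 further: 0% = DMSO wells and 100% = digitonin-killed cells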
# details: HepG2 viability, 24-48 h, at 10 µM, stronger effect = higher value
One threshold, 10%, splits the recorded inhibition values: lower ones are Criterion met, equal or higher ones are Criterion not met.

| compound | class |
| --- | --- |
| COc1ccc(CCNCCCCCCNCCc2ccc(Cl)c3ccccc23)cc1OC | Criterion not met |
| COc1ccc2nccc([C@@H](O)CN3CCC(NC(=O)c4ccc(CN5CCN(c6cccc(C)c6)CC5C)cc4)CC3)c2c1 (some centres undefined) | Criterion not met |
| CN1CCN(CCNc2c3ccccc3nc3c2ccc2ccccc23)CC1 | Criterion not met |
| NC1CCN(Cc2ccc(-c3ccc(-c4nc5ccc(F)cc5[nH]4)cc3)cc2)C1 (centres undefined) | Criterion not met |
| CNCCNCc1ccc(-c2ccc(-c3nc4ccc(C(F)(F)F)cc4[nH]3)s2)cc1 | Criterion not met |
| CN1CCC(C(=O)Nc2ccc(-c3ccc(-c4nc5ccccc5[nH]4)s3)cc2)CC1 | Criterion not met |
| CCn1cc(C=C2Oc3c(ccc(O)c3CN3CCCCC3)C2=O)c2cc(OC)ccc21 | Criterion met |
| CCOc1ccc2nc(C)cc(NN=Cc3ccccc3)c2c1 | Criterion met |
| Cc1cc(-c2ccc(S(=O)(=O)Nc3cc4c(cc3OC(C)C)CCN(C)CC4)cc2)ccc1Cl | Criterion not met |
| COC(=O)c1cccc(NC(=O)NC2CCN(c3ccnc(Nc4ccc(F)cc4)n3)C2)c1 (centres undefined) | Criterion met |
| NC1CCN(CCNCc2cccc(-c3ccc(-c4nc5ccc(F)cc5[nH]4)cc3)c2)C1 (centres undefined) | Criterion met |
| Cc1c[nH]c2cc(/C=C/C(=O)NC3CCC(CCN4CCc5ccc(C#N)cc5CC4)CC3)ccc12 (centres undefined) | Criterion met |
| CCOCCCn1c(=N)c(C(=O)NCc2ccc(OC)cc2)cc2c(=O)n3cccc(C)c3nc21 | Criterion not met |
| O=C(Nc1cccc(CN2CCN(C(=O)c3cccc(F)c3)CC2)c1)c1cccs1 | Criterion not met |
| CS(=O)(=O)Cc1ccc(Nc2nccc(NC3CCN(c4nccc(C(F)(F)F)n4)CC3)n2)cc1 | Criterion not met |
| COc1cc(CN2CCC(N3CCc4cc(NC(=O)c5cc(C)on5)ccc43)C2)ccc1F (centres undefined) | Criterion met |
| O=C(Nc1cccc(-c2csc(-c3nc4ccccc4[nH]3)c2)c1)c1cc(=O)c2ccccc2[nH]1 | Criterion not met |
| CN(CCC(CCN1CCC(c2c[nH]c3ccccc23)CC1)c1ccccc1)C(=O)Nc1ccc(Cl)c(Cl)c1 (centres undefined) | Criterion not met |
| CCCCCCCCc1c(C)[nH]c(C)c(C#N)c1=O | Criterion met |
| CCC[C@@H]([C@@H](CC1CCC(C)CC1)C(=O)N[C@@H](CCCCNC(=O)c1ccccn1)C(=O)Nc1nccs1)N(O)C=O (some centres undefined) | Criterion not met |
| Cc1cccc2[nH]c(-c3cccc(-c4cccc(CN5CCN(c6ccc(C#N)cn6)CC5)c4)c3)nc12 | Criterion not met |
| CCCCCCN1CCC(NCc2ccc(C(F)(F)F)cc2)CC1 | Criterion not met |

====

# assay.info: human hepatoma cell viability loss – ATP luminescence, cytotoxicity control for P. falciparum antimalarial project, primary screen (AID 2303);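 further: 0% = DMSO wells and 100% = digitonin-killed cells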
# details: HepG2 viability, 24-48 h, at 10 µM
Calls of active or inactive are those of the source.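 Rule for the calls: active = inhibition above 50%; inactive = the rest.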
Outcome codes: True (active), False (inactive)

| smiles.text | class |
| --- | --- |
| O=C(c1ccc([N+](=O)[O-])o1)N1CCN(c2nc3c(Cl)cccc3s2)CC1 | False |
| COc1cc(NC(=O)/C=C/c2cccc3ccoc23)ccc1OCCN(C(C)C)C(C)C | False |
| Cc1ccc(-c2ccc(Cl)cc2Oc2cnc(N)nc2N)o1 | False |
| CCCOc1ccc(OCCCON2C(N)=NC(N)=NC2(C)C)cc1 | True |
| O=C(Nc1ccc(Cn2ncc(N3CCCNCC3)c(Cl)c2=O)cc1)Nc1ccc(C(F)(F)F)cc1 | False |
| CC(=O)N(C)c1cccc(CNc2cc(C)nc(Nc3ccc(C)cc3)n2)c1 | False |
| COc1ccc(CNCc2cccc(-c3ccc(-c4nc5c(C)cccc5[nH]4)cc3)c2)cc1 | False |
| COc1ccc(Oc2ccc(Nc3ccnc4ccc(C(F)(F)F)cc34)cc2)cc1OC | False |

====

# assay.info: antimalarial activity against Dd2 strain (AID 2302);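 further: 0% = DMSO untreated growth and 100% = chloroquine plus artemisinin killed control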
# details: P. falciparum Dd2 in RBCs, LDH growth readout, 72 h; at 2 µM; stronger effect = higher value
Label -1 if growth inhibition falls below 20%; label 1 in every other case.

| molecule | class |
| --- | --- |
| CC(=O)Nc1cccc(C(=O)Nc2nc3ccc(-c4cc(=O)[nH]c(Nc5ccccc5Cl)n4)cc3[nH]2)c1 | 1 |
| CC1CCCN1Cc1cccc(-c2ccc(C(=O)NCCOc3ccccc3)s2)c1 (configuration not stated) | -1 |
| COc1ccc(-c2cccc(NC(=O)c3cccc(C#N)c3)c2)cc1CN1CCCC1 | 1 |
| CN(C)C(CNc1ncnc2cc(Cl)ccc12)Cc1ccccc1 (configuration not stated) | 1 |
| CCCNc1ccc2nccc(CCN3CCC(NCc4ccc5c(c4)NC(=O)CS5)CC3)c2n1 | -1 |
| CN1CCN(c2cc(NC(=O)Nc3ccc(-c4ccncc4)c(Cl)c3)ccc2Br)CC1 | 1 |
| CC(C)C[C@@H](/C=N/N1CCOC1=O)NC(=O)[C@H](CC(C)C)NC(=O)c1ccc(OCCN2CCOCC2)cc1 | 1 |
| CNCc1cccc2[nH]c(-c3ccc(Cc4cc(Cl)ccc4OCC(C)C)o3)nc12 | 1 |
| CCc1c(CCNCCCCCCNCCc2ccc(Br)cc2)ccc(OC)c1OC | -1 |
| O=C(CCc1cccnc1)Nc1cccc(-c2ccc(-c3nc4ccc(C(F)(F)F)cc4[nH]3)cc2)c1 | -1 |
| Cc1cc2nc(-c3cc(-c4cccc(NS(C)(=O)=O)c4)cnc3N)[nH]c2cc1C | 1 |
| O=C1NC(c2ccc(N3CCCCCC3)cc2)Nc2ccccc21 (configuration not stated) | 1 |
| COc1ccc2nccc([C@@H](O)CN3CCC(NCc4cc5ccccn5n4)CC3)c2c1 | -1 |
| OC(CNc1ccnc(Nc2cccc(CCN3CCOCC3)c2)n1)c1ccccc1 (configuration not stated) | -1 |
| NC(=O)c1cccc(Nc2nccc(Nc3ccc4[nH]c(-c5ccccc5)cc4c3)n2)c1 | 1 |
| CCCC(=O)c1cnc2c(Oc3cc(Cl)ncn3)cccc2c1Nc1ccccc1C | 1 |
| COCCn1c(C)nc2ccccc2c1=O | 1 |
| CCOc1cc(C(=O)Nc2cccnc2)ccc1-c1nc2cc(Cl)c(Cl)cc2[nH]1 | 1 |
| CCOC(=O)c1cn(CC)c2cc(O[C@@H]3CCN(C(=O)OC(C)(C)C)C3)ccc2c1=O | 1 |
| O=C(/C=C/c1ccc(Cl)c(Cl)c1)NCCCCCN1CC[C@H](NC(=O)/C=C/c2ccccc2)C1 | -1 |
| COc1ccc(-c2ccc(CN(C)C3CCC(NC(=O)c4cc5ccccc5[nH]4)CC3)cc2)cn1 (configuration not stated) | -1 |
